System: HIV-1 HTLVIIIB
TEST PROTOCOL: microbe, parasite or virus in culture
TEST SETTINGS: Human immunodeficiency virus 1, PBMC, in Homo sapiens, read-out: IC50, compound 1c compared to zidovudine
# maps each entry to its IC50

[
  {
    "COMPOUND": "Cc1cn([C@H]2C[C@H](N=[N+]=[N-])[C@@H](CO)O2)c(=O)[nH]c1=O",
    "IC50 (nM)": 3
  },
  {
    "COMPOUND": "COC(=O)C(C)NP(=O)(OC[C@@H]1C=C[C@H](n2cc(C)c(=O)[nH]c2=O)O1)Oc1ccc(Br)cc1 (some centres unmarked)",
    "IC50 (nM)": 1
  }
]
